Protocol Description: Pharmacokinetics of APZ in rat plasma
Type: in vivo, Wistar rats
Condition Context: Wistar, rat, plasma, po, 3 mg/kg, Cmax, APZ 3 mg/kg p.o. daily for 15 days (multiple doses); with or without SA 20 mg/kg p.o. for 15 days; mean ± SD, n = 6
Quantity Measured: Cmax
Reply with a number, then the unit it belongs to.

Input line: Entry `O=C1CCc2ccc(OCCCCN3CCN(c4cccc(Cl)c4Cl)CC3)cc2N1` needs its Cmax filled in; supply it.
Output line: 7.08 ng/mL

###

Protocol Description: Pharmacokinetics of APZ in rat plasma
Type: in vivo, Wistar rats
Condition Context: Wistar, rat, plasma, po, 3 mg/kg, MRT 0-∞, APZ 3 mg/kg p.o. daily for 15 days (multiple doses); with or without SA 20 mg/kg p.o. for 15 days; mean ± SD, n = 6
Quantity Measured: MRT inf

Input line: Output MRT inf of `O=C1CCc2ccc(OCCCCN3CCN(c4cccc(Cl)c4Cl)CC3)cc2N1`
Output line: 26.1 h

###

Protocol Description: Pharmacokinetics of APZ in rat plasma
Type: in vivo, Wistar rats
Condition Context: Wistar, rat, plasma, po, 3 mg/kg
Quantity Measured: Tmax
Write down the value, and be sure its unit follows.

Input line: Supply measured Tmax of O=C1CCc2ccc(OCCCCN3CCN(c4cccc(Cl)c4Cl)CC3)cc2N1 [APZ] in your reply.
Output line: 8 h

###

Protocol Description: Pharmacokinetics of APZ in rat plasma
Assay type: in vivo, Wistar rats
Condition Context: Wistar, rat, plasma, po, 3 mg/kg, AUC 0-∞, APZ 3 mg/kg p.o. daily for 15 days (multiple doses); with or without SA 20 mg/kg p.o. for 15 days; mean ± SD, n = 6
Quantity Measured: AUC(0-inf)
Form entry: enter the amount, then its unit.

Input line: Given the compound `O=C1CCc2ccc(OCCCCN3CCN(c4cccc(Cl)c4Cl)CC3)cc2N1` , write its reported AUC(0-inf).
Output line: 132 ng·h/mL
